Experiment: Oral bioavailability in rat
Assay type: ADME, organism-based
Settings: in vivo
metric: bioavailability (%)
Answer with a number only, understood to be in %.

State the recorded bioavailability for this entry: COc1ccc(-c2cnc(N3Cc4c(nc5ccccc5c4O)C3c3ccc4c(c3)CCO4)nc2)cc1 (configuration not stated)
20

Could you now consider this next compound?
State the recorded bioavailability for this entry: CCCc1nn(C)c2c(=O)[nH]c(-c3cc(S(=O)(=O)N4CCN(C)CC4)ccc3OCC)nc12
11
